Ref: patent US8785463B2

The entries below are paired with their reported Fold increase in cyclic AMP with respective to DMSO.
- measured-target: human GPR 119 receptor (Homo sapiens, UniProt Q8TDV5)
- Construct: expressed in transfected cells
- measurement-notes: cAMP assay in stable cell line expressing recombinant human GPR 119 receptor
- Format: cell-based
- details: 100 nM compound; DMSO = 1
Value expressed in fold; do not type the unit.

* CCOC(=O)N1CCC(Oc2cc(Oc3ccc(/C=C4\SC(=O)NC4=O)cc3)ncn2)CC1 | 1.94
* COc1cc(/C=C2\SC(=O)NC2=O)ccc1Oc1cc(OC2CCN(C(=O)OC(C)(C)C)CC2)ncn1 | 1.21
* COC(=O)N1CCC(Oc2ncnc(Oc3cccc(/C=C4\SC(=O)NC4=O)c3)c2C)CC1 | 1.06
* O=C1NC(=O)/C(=C/c2cccc(Oc3cc(OC4CCN(c5ncccn5)CC4)ncn3)c2)S1 | 1.27
* CC(C)c1noc(N2CCC(Oc3cc(Oc4ccc(/C=C5\SC(=O)NC5=O)cc4)ncn3)CC2)n1 | 2.30

input: For the compound COC(=O)N1CCC(Oc2cc(Oc3ccc(/C=C4\SC(=O)NC4=O)cc3)ncn2)CC1 , give its reported Fold increase in cyclic AMP with respective to DMSO.
output: 0.57

input: Please give the documented Fold increase in cyclic AMP with respective to DMSO of COC(=O)N1CCC(Oc2ncnc(Oc3ccc(/C=C4\SC(=O)NC4=O)cc3)c2C)CC1
output: 1.38

input: Determine its reported Fold increase in cyclic AMP with respective to DMSO: Cc1c(Oc2ccc(/C=C3\SC(=O)NC3=O)cc2)ncnc1OC1CCN(c2nc(C(C)C)no2)CC1
output: 1.32

====

- measured-target: human GPR 119 receptor (Homo sapiens, UniProt Q8TDV5)
- Construct: expressed in transfected cells
- measurement-notes: cAMP assay in stable cell line expressing recombinant human GPR 119 receptor
- Type: cell-based
- details: 10 nM compound; DMSO = 1
- Excerpt: A stable cell line expressing recombinant human GPR 119 receptor was established and used to investigate the efficacy of the compounds of the invention based on the intracellular levels of cyclic AMP (cAMP) using commercially available cAMP kits.
experimental-readout: Fold increase in cyclic AMP with respective to DMSO

Reference set (7 entries):
* Cc1c(Oc2ccc(/C=C3\SC(=O)NC3=O)cc2)ncnc1OC1CCN(C(=O)OC(C)(C)C)CC1 | 0.90 fold
* Cc1c(Oc2cccc(/C=C3\SC(=O)NC3=O)c2)ncnc1OC1CCN(c2nc(C(C)C)no2)CC1 | 3.32 fold
* Cc1c(Oc2ccc(/C=C3\SC(=O)NC3=O)cc2)ncnc1OC1CCN(C(=O)OCc2ccccc2)CC1 | 0.61 fold
* Cc1c(Oc2ccc(/C=C3\SC(=O)NC3=O)cc2)ncnc1OC1CCN(c2ncccn2)CC1 | 0.84 fold
* Cc1c(Oc2cccc(/C=C3\SC(=O)NC3=O)c2)ncnc1OC1CCN(c2ncccn2)CC1 | 1.32 fold
* CC(C)(C)OC(=O)N1CCC(Oc2cc(Oc3ccc(/C=C4\SC(=O)NC4=O)cc3)ncn2)CC1 | 2.22 fold
* CCc1cnc(N2CCC(Oc3cc(Oc4ccc(/C=C5\SC(=O)NC5=O)cc4)ncn3)CC2)nc1 | 1.00 fold

--- query ---
input: // Input: Cc1c(Oc2ccc(/C=C3\SC(=O)NC3=O)cc2)ncnc1OC1CCN(Cc2ccccc2)CC1 . Output its Fold increase in cyclic AMP with respective to DMSO only.
output: 0.34 fold

====

- measured-target: human GPR 119 receptor (Homo sapiens)
- Construct: expressed in transfected cells
- Sequence (Q8TDV5 1-335): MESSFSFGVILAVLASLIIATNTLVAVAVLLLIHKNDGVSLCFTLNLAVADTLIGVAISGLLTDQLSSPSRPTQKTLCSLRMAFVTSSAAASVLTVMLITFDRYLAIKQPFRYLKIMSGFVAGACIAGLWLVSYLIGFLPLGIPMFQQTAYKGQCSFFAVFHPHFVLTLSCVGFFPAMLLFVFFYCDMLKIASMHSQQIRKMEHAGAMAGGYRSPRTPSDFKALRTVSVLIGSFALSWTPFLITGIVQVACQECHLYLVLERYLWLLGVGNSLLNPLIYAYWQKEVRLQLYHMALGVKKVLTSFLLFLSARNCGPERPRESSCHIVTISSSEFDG
- measurement-notes: cAMP assay in stable cell line expressing recombinant human GPR 119 receptor
- Type: cell-based
- details: 10 nM compound; DMSO = 1
Fold increase in cyclic AMP with respective to DMSO values, listed per item
Hi! Could you send only the number? It should be in fold, unit omitted.

Solved cases below.
- CCc1cnc(N2CCC(Oc3cc(Oc4cccc(/C=C5\SC(=O)NC5=O)c4)ncn3)CC2)nc1 [Example 55]: 1.18
- CC(C)COC(=O)N1CCC(Oc2cc(Oc3ccc(/C=C4\SC(=O)NC4=O)cc3)ncn2)CC1 [Example 53]: 0.99
- COc1cc(/C=C2\SC(=O)NC2=O)ccc1Oc1ncnc(OC2CCN(C(=O)OC(C)(C)C)CC2)c1C [Example 8]: 0.52
- CCN1C(=O)S/C(=C\c2ccc(Oc3cc(OC4CCN(C(=O)OC(C)(C)C)CC4)ncn3)cc2)C1=O [Example 31]: 1.06
- CCOC(=O)N1CCC(Oc2ncnc(Oc3cccc(/C=C4\SC(=O)NC4=O)c3)c2C)CC1 [Example 20]: 0.59

input: Entry CC(C)COC(=O)N1CCC(Oc2cc(Oc3cccc(/C=C4\SC(=O)NC4=O)c3)ncn2)CC1 [Example 54] needs its Fold increase in cyclic AMP with respective to DMSO filled in; supply it.
output: 1.31

input: Specify Fold increase in cyclic AMP with respective to DMSO for Cc1c(Oc2ccc(/C=C3\SC(=O)NC3=O)cc2)ncnc1OC1CCN(C(=O)OCC(C)C)CC1 [Example 15] and stop.
output: 1.72

input: Identify measured Fold increase in cyclic AMP with respective to DMSO corresponding to O=C1NC(=O)/C(=C/c2cccc(Oc3cc(OC4CCN(Cc5ccccc5)CC4)ncn3)c2)S1 [Example 39]
output: 0.85

====

Listed below: Fold increase in cyclic AMP with respective to DMSO values for each entry.
- measured-target: human GPR 119 receptor (Homo sapiens)
- Construct: expressed in transfected cells
- measurement-notes: cAMP assay in stable cell line expressing recombinant human GPR 119 receptor
- Assay type: cell-based
- details: 100 nM compound; DMSO = 1
Report the figure in fold without appending any unit label.

Example results:
* COc1cc(/C=C2\SC(=O)NC2=O)ccc1Oc1ncnc(OC2CCN(C(=O)OC(C)(C)C)CC2)c1C [Example 8] | 0.85
* CC(C)(C)OC(=O)N1CCC(Oc2cc(Oc3ccc(/C=C4\SC(=O)NC4=O)cc3)ncn2)CC1 [Example 12] | 4.47
* CC(C)(C)OC(=O)N1CCC(Oc2cc(Oc3cccc(/C=C4\SC(=O)NC4=O)c3)ncn2)CC1 [Example 19] | 1.92
* COC(=O)N1CCC(Oc2ncnc(Oc3cccc(/C=C4\SC(=O)N(C(C)C)C4=O)c3)c2C)CC1 [Example 32] | 0.94
* CCOC(=O)CN1C(=O)S/C(=C\c2cccc(Oc3ncnc(OC4CCN(C(=O)OC(C)(C)C)CC4)c3C)c2)C1=O [Example 45] | 1.33

input: Report measured Fold increase in cyclic AMP with respective to DMSO on human GPR 119 receptor (Homo sapiens); entry: Cc1c(Oc2ccc(/C=C3\SC(=O)NC3=O)cc2)ncnc1OC1CCN(C(=O)OCC(C)C)CC1 [Example 15]
output: 2.19

input: Specify Fold increase in cyclic AMP with respective to DMSO for Cc1c(Oc2ccc(/C=C3\SC(=O)NC3=O)cc2)ncnc1OC1CCN(c2ncccn2)CC1 [Example 17] , system human GPR 119 receptor (Homo sapiens).
output: 1.06

====

- measured-target: human GPR 119 receptor (Homo sapiens)
- measurement-notes: cAMP assay in stable cell line expressing recombinant human GPR 119 receptor
experimental-readout: pEC50
Lab note — pEC50 values are minus log10 of concentrations in M.

A selection of reference data follows.
- Cc1c(Oc2cccc(/C=C3\SC(=O)NC3=O)c2)ncnc1OC1CCN(C(=O)OC(C)(C)C)CC1 [Example 9]: 7.37
- CC(C)c1noc(N2CCC(Oc3cc(Oc4cccc(/C=C5\SC(=O)NC5=O)c4)ncn3)CC2)n1 [Example 66]: 7.15
- Cc1c(Oc2ccc(/C=C3\SC(=O)NC3=O)cc2)ncnc1OC1CCN(C(=O)OC(C)(C)C)CC1 [Example 1]: 7.06
- Cc1c(Oc2ccc(/C=C3\SC(=O)NC3=O)cc2)ncnc1OC1CCN(c2nc(C(C)C)no2)CC1 [Example 7]: 6.91

input: GET pEC50 | system: human GPR 119 receptor (Homo sapiens) | item: CC(C)(C)OC(=O)N1CCC(Oc2cc(Oc3ccc(/C=C4\SC(=O)NC4=O)cc3)ncn2)CC1 [Example 12]
output: 6.89

====

In this section we review reported Fold increase in cyclic AMP with respective to DMSO values for a set of compounds.
- measured-target: human GPR 119 receptor (Homo sapiens, UniProt Q8TDV5)
- Construct: expressed in transfected cells
- measurement-notes: cAMP assay in stable cell line expressing recombinant human GPR 119 receptor
- Type: cell-based
- details: 10 nM compound; DMSO = 1
Respond with the bare value in fold.

* CC(C)c1noc(N2CCC(Oc3cc(Oc4ccc(/C=C5\SC(=O)NC5=O)cc4)ncn3)CC2)n1 | 1.14
* CC(C)COC(=O)N1CCC(Oc2cc(Oc3ccc(/C=C4\SC(=O)NC4=O)cc3)ncn2)CC1 [Example 34] | 0.73
* COC(=O)N1CCC(Oc2ncnc(Oc3cccc(/C=C4\SC(=O)NC4=O)c3)c2C)CC1 | 0.92
* Cc1c(Oc2ccc(/C=C3\SC(=O)NC3=O)cc2)ncnc1OC1CCN(c2nc(C(C)C)no2)CC1 | 0.79
* CCOC(=O)N1CCC(Oc2ncnc(Oc3cccc(/C=C4\SC(=O)N(C)C4=O)c3)c2C)CC1 | 4.52
* CC(=O)CN1C(=O)S/C(=C\c2ccc(Oc3cc(OC4CCN(C(=O)OC(C)(C)C)CC4)ncn3)cc2)C1=O | 1.58

Let us examine a further case.
input: Output Fold increase in cyclic AMP with respective to DMSO of Cc1c(OCC2CCCN2C(=O)OC(C)(C)C)ncnc1Oc1cccc(/C=C2\SC(=O)NC2=O)c1 (stereo not shown)
output: 0.90
